measured endpoint: melting point

Illustrative cases are given below, each with its answer.
| compound | observed measurement |
| --- | --- |
| COCCOc1ccc(C(F)(F)F)cc1NC(=O)CCl | 80 to 82 °C |
| Cc1cc(N)nn1-c1ccc(Cl)cc1 | 100 to 102 °C |
| O=C(O)CCSc1ccnc2cc(Cl)ccc12 | 209 to 211 °C |
| O=[N+]([O-])c1cc(S(=O)(=O)Nc2ccccc2)ccc1Cl | 87 to 89 °C |
| O=C1CCN(c2ccc([N+](=O)[O-])cc2)CC1 | 162 to 164 °C |
| Cc1cncc(-n2ccnc2)c1 | 88 to 90 °C |
| O=C(O)c1cccc(S(=O)(=O)NCC2CCCO2)c1 (configuration not stated) | 157 to 161 °C |
| Cc1ccc(C(=O)c2c(N)sc3c2CCC3)cc1 | 153 to 157 °C |

Supply reported melting point belonging to this compound: Cc1cc(N)n(CCO)n1
48 to 52 °C

Supply reported melting point belonging to this compound: O=C(O)CC12CC3CC(C1)CC(C(F)(F)F)(C3)C2
121 to 123 °C

Supply reported melting point belonging to this compound: O=C(O)CCC(=O)c1cc(Cl)sc1Cl
117 to 119 °C

Supply reported melting point belonging to this compound: NS(=O)(=O)c1cccc(NC(=O)c2ccc(Cl)cc2)c1
93 to 96 °C

###

measured endpoint: melting point

| substance smiles | melting point |
| --- | --- |
| CC(C)NC(=O)c1ccc(Cl)cc1N | 158 to 160 °C |
| O=C(O)C12CC3CC(C1)CC(c1ccccc1)(C3)C2 | 161 to 163 °C |
| COC(=O)c1sc2nc(C)nc(Cl)c2c1C | 149 to 151 °C |

# next compound below
Supply reported melting point belonging to this compound: COc1cccc(C=O)c1OC(F)F
30 to 32 °C

###

List of melting point values.

| compound | observed measurement |
| --- | --- |
| NC(=O)C1CCCC1 | 173 to 175 °C |

# next compound below
Supply reported melting point belonging to this compound: CC(C)(C)CS(N)(=O)=O
119 to 121 °C

###

measured endpoint: melting point

Illustrative cases are given below, each with its answer.
| compound | melting point |
| --- | --- |
| Cc1occc1-c1nnc(S)n1Cc1ccccc1 | 134 to 136 °C |
| O=C(O)C1CCCN(C(=O)c2ccc3[nH]ncc3c2)C1 (stereo unspecified) | 239 to 241 °C |
| Cc1ccc(S(=O)(=O)Cl)cc1Br | 69 to 71 °C |
| O=C(c1ccccc1)c1ncccn1 | 79 to 81 °C |

Supply reported melting point belonging to this compound: c1nnc(C2CCNCC2)[nH]1
208 to 210 °C

Supply reported melting point belonging to this compound: Nc1ccc(N2CCNC(=O)C2)nc1
136 to 138 °C

###

List of melting point values.

Illustrative cases are given below, each with its answer.
| compound | melting point |
| --- | --- |
| CC(C)c1nnc(NC(=O)OCC(F)(F)F)s1 | 189 to 191 °C |
| O=C(O)c1cnoc1-c1cccs1 | 198 to 200 °C |
| NS(=O)(=O)c1ccc(Cl)cc1F | 104 to 106 °C |
| Nc1ccccc1-c1nc(-c2ccccc2)n[nH]1 | 177 to 179 °C |
| N#Cc1cncs1 | 51 to 53 °C |

# next compound below
Supply reported melting point belonging to this compound: O=C(O)c1ccccc1C(=O)N1CCCC1
131 to 133 °C

Data origin, for the record: a melting point compilation (Tetko et al.)
